// data source = PubChem BioAssay AID1552

# Measured on: Ubiquitin-conjugating enzyme E2 N (Homo sapiens) (UniProt P61088)
# Sequence (P61088 whole entry, looked up): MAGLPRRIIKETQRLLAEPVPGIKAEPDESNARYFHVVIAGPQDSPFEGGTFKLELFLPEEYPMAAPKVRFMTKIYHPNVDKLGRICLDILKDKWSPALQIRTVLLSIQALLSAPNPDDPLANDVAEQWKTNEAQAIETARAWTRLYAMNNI
# Assay notes: UBE2N binders by NMR, biophysical, purified protein (AID 1552)
# Condition info: NMR binding to purified UBE2N
The source made the active and inactive calls. The rule behind the calls is not given here.
Property label: Kd

>>> observed_value("CC(C)(C)C(=O)Nc1ncc(C(F)(F)F)cc1Cl")
"> 4 mM (inactive)"
>>> observed_value("O=C(O)CN1C(=O)c2cccc([N+](=O)[O-])c2C1=O")
"> 4 mM (inactive)"
>>> observed_value("Nc1nc2c3ccccc3nc(Cc3ccccc3)n2n1")
"> 4 mM (inactive)"
>>> observed_value("C[C@H](CCC(=O)O)[C@H]1CCC2C3C(CC[C@@]21C)[C@@]1(C)CC[C@@H](O)C[C@H]1C[C@H]3O (stereo partly drawn)")
"> 4 mM (inactive)"

Below are 6 compounds. Give each one its Kd.
1. CC(C)=NNC(=O)c1ccccc1
2. COc1c(OC)c2occc2c2oc(=O)ccc12
3. O=C(O)C1CC(C2CCCCN2)CN2CCCCC12 (stereo not drawn)
4. CC(O)C(=O)N/N=C/c1ccccc1 (stereo not drawn)
5. CNC(Cc1c[nH]c2ccccc12)C(=O)O (stereo not drawn)
6. c1cc(CNc2ccc3c(c2)OCCO3)ccn1

1. > 4 mM (inactive)
2. > 4 mM (inactive)
3. > 4 mM (inactive)
4. > 4 mM (inactive)
5. > 4 mM (inactive)
6. > 4 mM (inactive)

Hi team, please reply with Kd for each item in this list.
1. c1ccc2c(c1)nnn2C1CCNCC1
2. O=C(NCCCSc1ncccn1)Nc1ncccn1

1: > 4 mM (inactive); 2: > 4 mM (inactive)

Query (compound): CC(=O)c1cc(CN2C(=O)c3ccccc3C2=O)cs1 ; field requested: Kd > 4 mM (inactive)
